Test system: P12-Ichikawa
Test: cell viability relative to DMSO control; higher = less cytotoxic
Conditions: RPMI 5 mM glucose + 10% FBS; 48 h; 0.0211 µM
I'd appreciate it if you could supply cell viability values for the items below.
Just the number in %, nothing appended.

# cell viability of CO[C@@H]1C(N(C)C(=O)c2ccccc2)C[C@H]2O[C@]1(C)n1c3ccccc3c3c4c(c5c6ccccc6n2c5c31)C(=O)NC4=O (stereo partly specified) = 90.9

Form: molecule = "CCCCCCCCc1ccc(CCC(N)(CO)CO)cc1" ; cell viability = 114

Short answer for "CO[C@H]1C[C@@H]2CC[C@@H](C)[C@@](O)(O2)C(=O)C(=O)N2CCCC[C@H]2C(=O)O[C@H]([C@H](C)C[C@@H]2CC[C@@H](OCCO)[C@H](OC)C2)CC(=O)[C@H](C)/C=C(/C)[C@@H](O)[C@@H](OC)C(=O)[C@H](C)C[C@H](C)\C=C/C=C\C=C/1C" : cell viability was 79.2

# molecule "COc1ccc(Nc2cc(-c3cnc(N)nc3)nc(N3CCOCC3)n2)cn1" ; its cell viability = 90.7

cell viability recorded for this molecule, "COc1cc(OC)c(NC(=O)Nc2cc(C)on2)cc1Cl" , is 98.2

# molecule "CCCCN(CCCC)C(=O)CN1C[C@H](c2ccc3c(c2)OCO3)[C@@H](C(=O)O)[C@@H]1c1ccc(OC)cc1" ; its cell viability = 61.9

Recorded result, "CN(C)C[C@@H]1CC[N]2C=C(C3=C2C=CC=C3)C/4=C(/C(=O)NC4=O)C5=C[N](CCO1)C6=C5C=CC=C6" , cell viability: 98.6

Entry "CC(C)(C)NC(=O)[C@@H]1CN(Cc2cccnc2)CCN1C[C@@H](O)C[C@@H](Cc1ccccc1)C(=O)N[C@H]1c2ccccc2C[C@H]1O.O=S(=O)(O)O" , cell viability reported as 111

Short answer for "C#C[C@]1(O)CC[C@H]2[C@@H]3CCc4cc(OC)ccc4[C@H]3CC[C@@]21C" : cell viability was 106

Lab note: measured cell viability of "COC[C@H]1OC(=O)C2=COC3=C2[C@@]1(C)\C4=C(\[C@@H]5CC[C@H](O)[C@@]5(C)C[C@H]4OC(C)=O)C3=O" was 118

Value of measured cell viability for the entry "COC(=O)[C@@H](N)CCCNC(=N)N[N+](=O)[O-]" : 94

cell viability in this record for "NC(=O)c1cccc(N)c1" : 121

cell viability reported for this molecule COc1ccc2c(c1OC)CN1CCc3cc4c(cc3C1C2)OCO4 (stereo unspecified) : 93.9

Form: molecule = "OC(COC1=C2C(=O)\C=C(/OC2=CC=C1)C([O-])=O)COC3=C4C(=O)\C=C(/OC4=CC=C3)C([O-])=O" ; cell viability = 94.2

cell viability for "O=C(NNC(=O)c1ccc(CN[S+](=O)([O-])c2ccc(F)c(Cl)c2)cc1)c1ccccc1" is 96.5

// field: cell viability; key: "COc1cc2ncnc(Nc3cccc(Br)c3)c2cc1OC" ; value = 103

====

Answer each item with its documented cell viability.
Test system: NOMO1
Assay: cell viability relative to DMSO control; higher = less cytotoxic
Conditions: RPMI 5 mM glucose + 10% FBS; 48 h; 0.00702 µM
Give a bare numeral; the unit % is implied.

Form field cell viability for item COC1(C[S+]([O-])c2ccccc2)CCN(CCc2c[nH]c3ccc(F)cc23)CC1 (stereo not given) on NOMO1: 106

Given the compound "Cc1cc(O)c2c(c1)C(=O)c1cc(O)cc(O)c1C2=O" and test system NOMO1, the measured cell viability is 107

Entry CC(C)NCC(O)COc1ccc(CCOCC2CC2)cc1 (stereo not given) , NOMO1 data, cell viability value: 107

Fill in: NOMO1 cell viability for "CCN(C)C(=O)Oc1cccc([C@H](C)N(C)C)c1" = 99.3

// compound "CC1(C)CC(O)CC(C)(C)N1[O]" , assay NOMO1, cell viability value: 128

Let me check: "N#CC(=C(/N)Sc1ccccc1N)/C(C#N)=C(\N)Sc1ccccc1N" , system NOMO1, measured cell viability is 121

Readout cell viability for "CC(=O)[C@H]1CC[C@H]2[C@@H]3CCC4=CC(=O)CC[C@]4(C)[C@H]3CC[C@]12C" , test system NOMO1, was 122

Form field cell viability for item "CC(C)(C)c1cc(C(=O)O)c(NC(=O)Nc2ccc3[nH]ncc3c2)s1" on NOMO1: 86.6

Summary: "C=CCn1c(=O)c2cnc(Nc3ccc(N4CCN(C)CC4)cc3)nc2n1-c1cccc(C(C)(C)O)n1" , NOMO1, cell viability = 138

Here "Oc1cc(O)cc(/C=C/c2ccc(O)c(O)c2)c1" was tested on NOMO1, and its cell viability came to 94

Values from the supplement of paper PMC11451515
